molecular target: PfCSP full length (Plasmodium falciparum (isolate NF54), UniProt P19597); assay: ELISA AUC
Sequence (P19597 20-375): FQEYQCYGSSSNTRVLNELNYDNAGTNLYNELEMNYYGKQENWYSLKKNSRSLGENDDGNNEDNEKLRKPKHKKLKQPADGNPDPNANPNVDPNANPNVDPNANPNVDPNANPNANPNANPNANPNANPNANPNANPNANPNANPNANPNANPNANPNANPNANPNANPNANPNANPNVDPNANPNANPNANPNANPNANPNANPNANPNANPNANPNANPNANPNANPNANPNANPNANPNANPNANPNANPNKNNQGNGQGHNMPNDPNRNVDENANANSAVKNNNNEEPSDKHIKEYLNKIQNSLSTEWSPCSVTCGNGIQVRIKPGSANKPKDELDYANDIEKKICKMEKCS
binding score reference

>  <BINDER>
CL-445635 (antibody, V domains shown, peptides N-terminally acetylated and C-terminally amidated) VH: QVQLVESGGAVVQPGTSLRLSCAASGFTFSNYGMHWVRQAPGKGLQWVALIWYNGNNKFYAESVEGRFIISRDNSKNILFLQMNSLSAEDTAVYYCARAFYYDSGNYLDYWGPGSLVTVSS VL: DIQMTQSPSSVSASVGDRVTITCRARQDISSRLAWYQQKPGKAPKILIYGASSLQSGVPSRFSASGSGTDFTLTISSLQPEDFATYYCQQANSFPWTFGQGTKVEIK

>  <binding score>
2.4

$$$$
>  <BINDER>
CL-512870 (antibody, V domains shown, peptides N-terminally acetylated and C-terminally amidated) VH: QVQLVESGGGVVQPGRSLRLSCEASGFTFSHYGMHWVRQAPGRGLEWVAIIWYDGSNTYYRDSVKGRFTISRDNSKDTLFLQMNSLRPDDTAVYYCARALYYDSGSLFDFWGQGTLVTVSS VL: DIQMTQSPSTLSASVGDRVTITCRASQSISSWLAWYQQKPGKAPKLLIYKASSLETGVPSRFSGSGFGTEFTLSISSLQPDDFATYYCLQYNIYWTFGQGTKVEIK

>  <binding score>
2.23

$$$$

// data source = paper PMC10720262
